System: PLC-β
TEST PROTOCOL: ATP-stimulated PLC activity ([3H]-inositol phosphate accumulation) in MDCK cells
Format: cell-based, canine
EXPERIMENTAL CONTEXT: MDCK cells, 30 minutes with compound, then 15 minutes stimulation, mean ± SD; read-out: IC50(PLC) (concentration causing fifty percent decrease in ATP- or EGF-stimulated accumulation of [3H]-inositol phosphates)
ATTRIBUTE MEASURED: IC50
The answer consists of two parts: a number and, after it, its unit.

**Q:** Which IC50 reading was recorded for the molecule COc1ccc2c(c1)CCC1C2CCC2(C)C(NCCCCCCN3C(=O)C=CC3=O)CCC12 (stereo not shown) [U-73,122, reference compound] ?
**A:** 7 µM

**Q:** Using the record for O=c1oc2ccccc2cc1[N+](=O)[O-] [3-nitrocoumarin, reference compound] , report its IC50.
**A:** 21 µM

**Q:** So what does the record say about IC50 for CCCCCCCCCCCCOP(=O)([O-])OCC[N+](C)(C)C ?
**A:** 275 µM

**Q:** Looking for the measured IC50 of CCCCCCCCCCCCCCOP(=O)([O-])OCC[N+](C)(C)C , can you help?
**A:** 73 µM

---
**Q:** Look up IC50 for this molecule: CCCCCCCCCCCCCCCCOP(=O)([O-])OCC[N+](C)(C)C
**A:** 36 µM

**Q:** Item CCCCCCCCCCCCCCCCCCCCOP(=O)([O-])OCC[N+](C)(C)C has what recorded IC50?
**A:** 48 µM

**Q:** Find the recorded IC50 belonging to CCCCCCCCCCCCCCCCCCOP(=O)([O-])OCC[N+](C)(C)C and report it.
**A:** 30 µM
